Cited source: patent US8299048B2

Target: human GR (Homo sapiens, UniProt P04150)
Sequence (P04150 whole entry): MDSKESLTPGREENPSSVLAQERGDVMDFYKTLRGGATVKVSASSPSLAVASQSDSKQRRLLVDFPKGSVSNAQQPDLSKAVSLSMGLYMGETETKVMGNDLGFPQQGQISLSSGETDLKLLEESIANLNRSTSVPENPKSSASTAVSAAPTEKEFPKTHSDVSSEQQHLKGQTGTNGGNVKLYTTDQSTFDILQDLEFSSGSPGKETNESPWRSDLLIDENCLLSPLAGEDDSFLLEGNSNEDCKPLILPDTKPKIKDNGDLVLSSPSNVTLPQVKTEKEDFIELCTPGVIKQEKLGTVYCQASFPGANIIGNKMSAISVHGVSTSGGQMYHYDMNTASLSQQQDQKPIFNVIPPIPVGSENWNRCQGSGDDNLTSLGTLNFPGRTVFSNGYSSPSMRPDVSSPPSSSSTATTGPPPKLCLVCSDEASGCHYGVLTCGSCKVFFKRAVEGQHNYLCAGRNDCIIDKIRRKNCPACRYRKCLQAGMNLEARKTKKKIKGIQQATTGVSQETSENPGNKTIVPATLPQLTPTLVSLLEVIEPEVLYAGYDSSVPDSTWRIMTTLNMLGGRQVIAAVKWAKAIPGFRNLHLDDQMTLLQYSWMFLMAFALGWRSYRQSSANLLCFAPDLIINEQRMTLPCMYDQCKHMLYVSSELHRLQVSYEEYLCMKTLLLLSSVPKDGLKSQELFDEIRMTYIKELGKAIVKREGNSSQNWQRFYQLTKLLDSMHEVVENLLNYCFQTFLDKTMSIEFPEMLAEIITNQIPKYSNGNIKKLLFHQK
Experiment: Transrepression Assay (GITAR), TNFα-β-lactamase reporter in U937 cells
Type: cell-based
Set-up: U937 cells contain an endogenous glucocorticoid receptor (GR); endogenous in cells; host or cells: U937 cells stably transfected with the TNF-alpha promoter/beta-lactamase reporter
Conditions: U937 cells; inflection point; read-out: Transrepression U937 Cells GITAR IP
From the text: This assay assesses the ability of test compounds to control transcription from the TNFα-β-lactamase reporter gene in U937 cells, a human myelomonocytic leukemia cell line that naturally expresses the human GR. The assay measures compound dependent-repression of the TNFa promoter linked to a reporter gene. The human U937 cells that had been stablely transfected with the TNF-α promoter driving β-lactamase are used for this assay. U937 cells contain an endogenous glucocorticoid receptor (GR). […]
Assay Endpoint: log10(EC50) (log10 of the value in nM)
Scale: decimal log of EC50, EC50 in nM.

Solved cases below.
# Compound, Reading
data = [
    ("C[C@]12Cc3cnn(-c4ccc(F)cc4)c3C=C1CC[C@@H]2CN(CC#N)S(=O)(=O)c1cc(Cl)c(Cl)s1 [Example 24]", 2.75),
    ("Cc1nn(C)c(Cl)c1S(=O)(=O)N(CC1CC1)C[C@H]1CCC2=Cc3c(cnn3-c3ccc(F)cc3)C[C@@]21C [Example 7]", 2.59),
    ("CCCS(=O)(=O)N(CCc1ccccn1)C[C@H]1CCC2=Cc3c(cnn3-c3ccc(F)cc3)C[C@@]21C [Example 151]", 2.74),
    ("Cn1cc(S(=O)(=O)N(CCc2ccccn2)C[C@H]2CCC3=Cc4c(cnn4-c4ccc(F)cc4)C[C@@]32C)c(C(F)(F)F)n1 [Example 150]", 2.58),
    ("C[C@]12Cc3cnn(-c4ccc(F)cc4)c3C=C1CC[C@@H]2CN(CC(O)C(F)(F)F)S(=O)(=O)Cc1ccccc1C(=O)O (stereo partly drawn) [Example 164]", 3.10),
    ("C[C@]12Cc3cnn(-c4ccc(F)cc4)c3C=C1CC[C@@H]2CN(CCc1ccccc1F)S(=O)(=O)Cc1ccccc1C(N)=O [Example 190]", 2.59),
    ("COc1ccccc1CCN(C[C@H]1CCC2=Cc3c(cnn3-c3ccccc3)C[C@@]21C)S(=O)(=O)CC(F)(F)F [Example 139]", 2.90),
    ("C[C@]12Cc3cnn(-c4ccc(F)cc4)c3C=C1CC[C@@H]2CN(CC#N)S(=O)(=O)c1ccc(F)cc1 [Example 46]", 2.27),
]

# per-item lookup of log10(EC50); items listed below
1. C[C@]12Cc3cnn(-c4ccc(F)cc4)c3C=C1CC[C@@H]2CN(CC#N)S(=O)(=O)c1ccccc1C#N [Example 55]
2. C[C@]12Cc3cnn(-c4ccc(F)cc4)c3C=C1CC[C@@H]2CN(CCc1ccccc1F)S(=O)(=O)Cc1ccc(Cl)cc1Cl [Example 105]
3. COCCN(C[C@H]1CCC2=Cc3c(cnn3-c3ccc(F)cc3)C[C@@]21C)S(=O)(=O)CCN1C(=O)c2ccccc2C1=O [Example 118]
4. COc1ccccc1CCN(C[C@H]1CCC2=Cc3c(cnn3-c3ccc(F)cc3)C[C@@]21C)S(=O)(=O)CC(F)(F)F [Example 120]
5. C[C@]12Cc3cnn(-c4ccc(F)cc4)c3C=C1CC[C@@H]2CN(CC1CC1)S(=O)(=O)c1ccccc1F [Example 2]
6. C[C@]12Cc3cnn(-c4ccc(F)cc4)c3C=C1CC[C@@H]2CN(CCO)S(=O)(=O)c1ccc(C#N)cc1Cl [Example 60]
7. C[C@]12Cc3cnn(-c4ccc(F)cc4)c3C=C1CC[C@@H]2CN(CCO)S(=O)(=O)c1cc(F)cc(F)c1 [Example 72]

1: 2.53; 2: 2.04; 3: 3.02; 4: 1.89; 5: 2.41; 6: 2.91; 7: 2.69
